Reference source for all entries: ChEMBL document CHEMBL5150077

- Assay Method Text: in vivo
- Experimental Conditions: beagle, dog, po, 5 mg/kg
Reported Property: bioavailability at 24 h (%)
Answer with a number only, understood to be in %.

input: # return recorded bioavailability at 24 h for input O=C(Nc1nc2cccc(C3CCC4(CC3)CN(C(=O)[C@@H]3CC3(F)F)C4)n2n1)C1CC1
output: 106

* * *

- Species: Homo sapiens
- Assay Method Text: Selectivity index, ratio of IC50 for inhibition of recombinant human JAK2 to IC50 for inhibition of recombinant human JAK1
Ratio IC50 less than 10 is Yes; Ratio IC50 greater than or equal to 10 is No.

N#CCC(=O)N1CCC2(CCC(c3cccc4nc(NC(=O)C5CC5)nn34)CC2)CC1 :: Yes
O=C(Nc1nc2cccc(C3=CCC(NC(=O)C4CC4)CC3)n2n1)C1CC1 (centres undefined) :: Yes

input: Given N#CCC(=O)N1CCC2(CCC(c3cccc4nc(NC(=O)C5CC5)nn34)CC2)C1 (centres undefined) , is recorded Ratio IC50 strictly lower than 10?
output: Yes

input: Ratio IC50 strictly < 10 for this compound? O=C(Nc1nc2cccc([C@H]3CCC4(CCN(C(=O)[C@@H]5CC5(F)F)CC4)C3)n2n1)C1CC1
output: No

input: Is it true that Ratio IC50 reported for O=C(Nc1nc2cccc(C3CCC4(CC3)CCN(C(=O)CC(F)(F)F)C4)n2n1)C1CC1 (centres undefined) is less than 10?
output: No

input: In plain terms, does O=C(Nc1nc2cccc(C3CCC4(CC3)CCN(C(=O)[C@@H]3CC3(F)F)CC4)n2n1)C1CC1 come in under 10 for Ratio IC50?
output: No

input: Strictly below 10: is that where Ratio IC50 of O=C(Nc1nc2cccc(C3CCC(NC(=O)C4(F)CC4)CC3)n2n1)C1CC1 (centres undefined) sits?
output: No

input: A record lists O=C(Nc1nc2cccc(C3CCC4(CC3)CCN(C(=O)[C@H]3CC3(F)F)C4)n2n1)C1CC1 (some centres undefined) . Is its Ratio IC50 below 10?
output: No

input: Record O=C(Nc1nc2cccc([C@H]3CC[C@@H](NC(=O)[C@H]4CC4(F)F)CC3)n2n1)C1CC1 : is its Ratio IC50 strictly below 10?
output: No
